test: Pharmacokinetic study in rats; format: in vivo; settings: male, Wistar, po; rat plasma, 1 mg/kg telmisartan equivalent in 0.5% w/v sodium carboxymethylcellulose; mean ± SD, n = 6

# Query Smiles, AUC(0-inf)
measured = [
    ("CCCc1nc2c(C)cc(-c3nc4ccccc4n3C)cc2n1Cc1ccc(-c2ccccc2C(=O)O)cc1", "4180 ng·h/mL"),
]

====

Experiment: Equilibrium solubility analysis
Assay type: physicochemical
Conditions: distilled water, 25 °C, stirred 24 h; mean ± SD, n = 3
Description: Improvement in solubility may due to the formation of hydrogen bonds between the imidazole rings of telmisartan and polar carboxylate hydrogens of maleic acid in presence of solvents. The solubility analysis of telmisartan and prepared telmisartan-maleic acid cocrystals were assessed by placing an excessive amount of sample in 50 mL of distilled water at 25 °C. […]

# Query Smiles, solubility at 24 h, µg/mL
measured = [
    ("CCCc1nc2c(C)cc(-c3nc4ccccc4n3C)cc2n1Cc1ccc(-c2ccccc2C(=O)O)cc1", 5.15),
]

Data origin, for the record: paper PMC9959501
